# protocol-description: small-molecule binders of probe aNOTCH2, primary screen, biochemical, small-molecule microarray, 635/667 nm fluorescence (AID 1121);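 further: score merges feature fluorescence read at 667 nm with its signal to noise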
# applied-conditions: higher = more signal
TRUE means recorded composite z-score is -0.04 or above; FALSE means it is below -0.04.

IN: Quick check: does O=C1c2ccccc2[C@](Cc2ccccc2I)(C(=O)NCCN2CCOCC2)[C@H](c2ccc(CO)cc2)N1Cc1ccccc1Cl have composite z-score greater than or equal to -0.04?
OUT: TRUE

IN: Quick check: does CCC(CC)C(O)C1C=CC2C(=O)NC(=O)C2N1Nc1ccccn1 (centres undefined) have composite z-score greater than or equal to -0.04?
OUT: FALSE

IN: Quick check: does O=C1C2C=CC(C(O)CCc3ccccc3)N(Nc3ccccc3F)C2C(=O)N1c1ccccc1 (centres undefined) have composite z-score greater than or equal to -0.04?
OUT: FALSE

IN: Quick check: does COc1cc2c(cc1O)C(c1cccs1)N(C)CC2 (centres undefined) have composite z-score greater than or equal to -0.04?
OUT: FALSE

IN: Quick check: does NC(=O)N1C(=O)C2C(C1=O)C1C=C(c3ccc(CO)cc3)C2C(c2cccs2)N1Cc1cccc(OC(F)(F)F)c1 (centres undefined) have composite z-score greater than or equal to -0.04?
OUT: FALSE

IN: Quick check: does COCC(=C=CC[C@@H](O)c1cccc(OCCO)c1)C[C@@H](O)c1ccccn1 have composite z-score greater than or equal to -0.04?
OUT: FALSE

IN: Quick check: does COc1ccccc1CN1C(=O)c2ccccc2[C@@H](C(=O)NC2CC2)[C@@H]1c1ccc(CO)cc1 have composite z-score greater than or equal to -0.04?
OUT: FALSE

IN: Quick check: does CCCC=C(CCC)[C@@H](NC(=O)c1cccs1)c1ccc(C(F)(F)F)cc1 have composite z-score greater than or equal to -0.04?
OUT: TRUE
